Test: human hepatoma cell viability loss – ATP luminescence, cytotoxicity control for P. falciparum antimalarial project, primary screen (AID 2303)
Conditions: HepG2 viability, 24-48 h, at 10 µM, stronger effect = higher value
With a cut-off of 20%, any inhibition strictly below it is called Fulfilled; any inhibition meeting it or above is called Not fulfilled.

Use these answered entries as a reference point.
- Molecule: "CN(CCN)Cc1cccc(-c2cccc(-c3nc4ccc(C(F)(F)F)cc4[nH]3)c2)c1"
  Class label: "Not fulfilled"
- Molecule: "OC(CNc1ccnc(Nc2ccccc2)n1)c1cccc(C(F)(F)F)c1 (centres undefined)"
  Class label: "Fulfilled"
- Molecule: "COc1ccc2nccc(N3CCN(CCNCc4ccc5c(n4)NC(=O)CO5)CC3)c2n1"
  Class label: "Fulfilled"
- Molecule: "Cc1cccc2[nH]c(-c3ccc(-c4ccc(CN5CCN(CC6CCCN(C)C6)CC5)cc4)cc3)nc12 (centres undefined)"
  Class label: "Not fulfilled"
- Molecule: "CCN1CCC(NCc2ccc(-c3ccc(Cl)cc3)cc2)CC1"
  Class label: "Not fulfilled"
- Molecule: "CCCc1cc(Cc2cnc(N)nc2N)cc(CCC)c1OCCCCC(=O)OCC"
  Class label: "Fulfilled"
- Molecule: "COc1ccc(CNC2CCN(C)CC2)cc1-c1ccc(S(=O)(=O)NCC2CCCO2)s1 (centres undefined)"
  Class label: "Fulfilled"

Turning to the following molecule.
*Q* # TODO verify inhibition < 20% strictly for this molecule: "Brc1ccc(Nc2ccnc3cc(-c4nccs4)ccc23)cc1Oc1ccnc2cc(-c3nccs3)ccc12"
*A* Fulfilled
